Every entry's value here was drawn from patent US20100248359A1.

// pEC50 lookup, one value per entry
# system-name: T1, soluble form of GPC3 core protein (human, UniProt P51654 25-563)
# T1 construct: not shown: His tag added to the C-terminus
# T1 sequence (P51654 25-563 S495A/S509A, form in doubt): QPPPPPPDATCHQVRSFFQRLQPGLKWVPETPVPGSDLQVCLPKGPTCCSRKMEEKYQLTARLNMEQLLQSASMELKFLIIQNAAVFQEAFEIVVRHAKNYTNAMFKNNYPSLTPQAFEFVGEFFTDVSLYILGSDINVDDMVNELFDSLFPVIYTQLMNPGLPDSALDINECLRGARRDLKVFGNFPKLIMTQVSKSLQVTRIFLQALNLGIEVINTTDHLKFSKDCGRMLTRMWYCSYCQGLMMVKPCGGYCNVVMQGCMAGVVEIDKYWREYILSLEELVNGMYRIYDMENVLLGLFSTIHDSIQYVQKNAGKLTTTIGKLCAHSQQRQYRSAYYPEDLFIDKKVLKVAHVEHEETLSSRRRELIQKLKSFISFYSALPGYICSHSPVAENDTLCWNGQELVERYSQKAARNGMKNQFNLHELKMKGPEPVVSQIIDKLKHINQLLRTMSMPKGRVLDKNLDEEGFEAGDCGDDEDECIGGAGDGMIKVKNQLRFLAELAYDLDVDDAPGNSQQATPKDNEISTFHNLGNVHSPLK
# experimental-details: ELISA on plate coated with soluble GPC3 core protein
Just the number, please; pEC50 means minus log10 of the concentration in mol/L.

Sample M10D2 (antibody, V domains shown, Mouse monoclonal from hybridoma) VH: QVQLQQPGAELVKPGASVKLSCKASGYTFTSYWMHWVKQRPGQGLEWIGEIDPSDSYTYYNQKFRGKATLTVDKSSNTAYMQLSSLTSEDSAVYYCSRSNLGDGHYRFPAFPYWGQGTLVTVSA VL: DIVLTQSPATLSVTPGDRVSLSCRASHSISNFLHWYPQKSHESPRLLIKYASQSISGIPSRFSGNGSGTDFTLSINSVETEDFGMYFCQQSNIWSLTFGAGTKLELK ; pEC50 observed: 8.98

Sample M18D4 (antibody, human IgG1, kappa, V domains shown, Mouse monoclonal from hybridoma) VH: EVQLQQSGTVLARPGASVKMSCKASGYTFTGYWMRWVKQRPGQGLEWIGAIYPGNSDTTYNQKFKGKAKLTAVTSVSTAYMELSSLTNEDSAVYYCSRSGDLTGGFAYWGQGTLVTVST VL: DIVMTQAAFSNPVTLGTSTSISCRSSKSLLHSNGITYLYWYLQKPGQSPQLLIYQMSNLASGVPDRFSSSGSGTDFTLRISRVEAEDVGVYYCAQNLELPYTFGSGTKLEIKR ; pEC50 observed: 9.07

Sample M6B1 (antibody, V domains shown, Mouse monoclonal from hybridoma) VH: EVQLVESGGDLVKPGGSLKLSCAASGFTFSSYAMSWVRQTPEKRLEWVAAINSNGGTTYYPDTMKDRFTISRDNAKNTLYLQMSSLRSEDSALYYCTRHNGGYENYGWFAYWGQGTLVTVSA VL: DIQMTQSPSSLSASLGGKVTITCKASQDINKNIIWYQHKPGKGPRLLIWYTSTLQPGIPSRFSGSGSGRDYSFSISNLEPEDIATYYCLQYDNLPRTFGGGTKLEIK ; pEC50 observed: 8.26

With those in mind, consider the next binder.
Sample M11F1 (antibody, V domains shown, Mouse monoclonal from hybridoma) VH: QVTLKESGPGILQPSQTLSLTCSFSGFSLSIYGMGVGWIRQPSGKGLEWLANIWWNDDKYYNSALKSRLTISKDTSNNQVFLKISSVDTADTATYYCAQIGYFYFDYWGQGTTLTVSS VL: DVVMTQTPLSLPVSLGDQASISCRSSQSLVHSNGNTYLHWYLQKPGQSPKLLIYKVSNRFSGVPDRFSGSGSGTDFTLKISRVEAEDLGVYFCSQSTHVPWTFGGGTKLEIK ; pEC50 observed: 8.66
